Documented PDI across a set of molecules
Assay: Particle size and polydispersity index of nanoparticle compositions (Zetasizer Nano ZS)
Assay type: physicochemical
Conditions: Table 1A
Respond numerically, and do not add a unit to the figure.

CCCCCCCCCOC(=O)CCCCCCCN(CCO)CCCCCCCC(=O)OC(CC)CC: 0.24

So, `CCCCCCCCCOC(=O)CCCCCCCN(CCCCCCCC(=O)OC(CCCCCCCC)CCCCCCCC)CCOC` ? Its PDI was 0.094

So, `CCCCCCCCCOC(=O)CCCCCCCN(CCO)CCCCCCCC(=O)Oc1ccc(CCCCC)c(CCCCC)c1` ? Its PDI was 0.08

So, `CCCCCCCCCOC(=O)CCCCCCCN(CCCCCCCC(=O)OC(CCCCCCCC)CCCCCCCC)CCCN/C(=N/C#N)N(C)C` ? Its PDI was 0.20

So, `CCCCCCCCCOC(=O)CCCCCCCN(CCO)CCN(CCO)CCCCCCCC(=O)OC(CCCCCCCC)CCCCCCCC` ? Its PDI was 0.190

So, `CCCCCCCCCCCCCCN(CCO)CCCCCCCC(=O)OC(CCCCCCCC)CCCCCCCC` ? Its PDI was 0.14

* * *

Assay: Apparent (surface) pKa of the LNP formulation (TNS assay)
Assay type: physicochemical
Details: Table 1A
assay metric: pKa
Respond numerically, and do not add a unit to the figure.

CCCCC/C=C\C/C=C\CCCCCCCCN(CCO)CCCCCCCC(=O)OC(CCCCCCCC)CCCCCCCC: 6.32
CCCCCCCCCOC(=O)CCCCCCCN(CCCCCCCC(=O)OC(CCCCCCCC)CCCCCCCC)CCCn1ccc(=O)[nH]c1=O: 6.42
CCCCCCCCCOC(=O)CCCCCCCN(CCO)CCCCCCCC(=O)OC(CCC1CC1CCCC)CCC1CC1CCCC (stereo not drawn): 6.54

So, CCCCCCCCC(CCCCCCCC)OC(=O)CCCCCCCN(CCO)CCCCCC(=O)OC(CCCCCCCC)C1CC1 (stereo not drawn) ? Its pKa was 6.56

So, `CCCCCCCCCC(=O)OCCCCCCCN(CCO)CCCCCCCC(=O)OC(CCCCCCCC)CCCCCCCC` ? Its pKa was 6.600

So, `CCCCCCCCC(CCCCCCCC)OC(=O)CCCCCCCN(CCO)CCCCCC` ? Its pKa was 6.84

So, CCCCCCCCC(CCCCCCCC)OC(=O)CCCCCCCN(CCO)CCCC(=O)OCC1CC1CCCCCC (stereo not drawn) ? Its pKa was 6.44

So, `CCCCCCCCC(CCCCCCCC)OC(=O)CCCCCCCN(CCO)CCCCCCCC(=O)OC(CCCCCCCC)CCCCCCCC` ? Its pKa was 6.00

So, `CCCCCCCCCOC(=O)CCCCCCCN(CCCCCCCC(=O)OC(CCCCCCCC)CCCCCCCC)CCOCCN(C)C` ? Its pKa was 7.76

So, `CCCCCCCCCOC(=O)CCCCCCCN(CCCCCCCC(=O)OC(CCCCCCCC)CCCCCCCC)Cc1ccccc1` ? Its pKa was 4.43

So, CCCCCCCCC(CCCCCCCC)OC(=O)CCCCCCCN(CCO)CCCCCCCC(=O)OC(CCCCCCCC)C1CC1 (stereo not drawn) ? Its pKa was 6.36

So, `CCCCCCCCCOC(=O)CCCCCCCN(CCO)CCCCCCCOP(=O)(OCCCCCCCC)OCCCCCCCC` ? Its pKa was 7.76

So, `CCCCCCCC/C=C\CCCCCCCCN(CCO)CCCCCCCC(=O)OC(CCCCCCCC)CCCCCCCC` ? Its pKa was 6.64

So, `CCCCCCCCCOC(=O)CCCCCCCN(CCCCCCCC(=O)OC(CCCCCCCC)CCCCCCCC)CCCNC(=O)OC` ? Its pKa was 6.17

So, `CCCCCCCCC(CCCCCCCC)OC(=O)CCCCCCCN(C)CCCCCCCCCC(=O)OCCCCCCC` ? Its pKa was 6.284

So, `CCCCCCCCCOC(=O)CCCCCCCN(CCCCCCCC(=O)OC(CCCCCCCC)CCCCCCCC)CCN1CCN(C)CC1` ? Its pKa was 7.27

So, `CCCCCCCCCOC(=O)CCCCCCCN(CCO)CCCCCCCC(=O)OC(COCCCCCC)COCCCCCC` ? Its pKa was 6.54

So, `CCCCCCCCCOC(=O)CCCCCCCN(CCO)CCCCCCCC(=O)OC(C)(C)C` ? Its pKa was 6.953

So, `CCCCCC/C=C\COC(=O)CCCCCCCN(CCO)CCCCCCCC(=O)OC(CCCCCCCC)CCCCCCCC` ? Its pKa was 6.71
